Reference source for all entries: patent US20100272723A1

Molecular target: T1, human CD19 (human, UniProt P15391 20-556)
T1 construct: also called B-cell surface antigen B4; B-cell antigen CD19
T1 sequence: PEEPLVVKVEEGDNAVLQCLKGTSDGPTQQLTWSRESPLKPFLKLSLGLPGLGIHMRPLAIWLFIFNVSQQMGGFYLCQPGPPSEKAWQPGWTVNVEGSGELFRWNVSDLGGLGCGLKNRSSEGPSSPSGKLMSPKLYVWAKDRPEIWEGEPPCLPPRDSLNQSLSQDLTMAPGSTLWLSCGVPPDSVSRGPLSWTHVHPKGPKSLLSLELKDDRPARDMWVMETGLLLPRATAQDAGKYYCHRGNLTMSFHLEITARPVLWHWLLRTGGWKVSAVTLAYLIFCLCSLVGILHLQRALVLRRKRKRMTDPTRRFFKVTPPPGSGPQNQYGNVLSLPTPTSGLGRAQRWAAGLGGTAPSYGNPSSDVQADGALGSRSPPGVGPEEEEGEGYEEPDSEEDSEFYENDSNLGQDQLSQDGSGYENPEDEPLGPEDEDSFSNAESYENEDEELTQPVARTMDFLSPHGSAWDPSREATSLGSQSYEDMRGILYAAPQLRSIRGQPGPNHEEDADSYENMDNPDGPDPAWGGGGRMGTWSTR
Experiment: DELFIA competition on Raji cells: unlabeled antibody competes with Eu-labeled anti-CD19 for surface CD19 [upper panel]

BINDER	IC50 (read off the curve)
H0L3 (antibody, V domains shown, also called 4G7 H0L3) VH: EVQLQQSGPELIKPGASVKMSCKASGYTFTSYVMHWVKQKPGQGLEWIGYINPYNDGTKYNEKFKGKATLTSDKSSSTAYMELSSLTSEDSAVYYCARGTYYYGSRVFDYWGQGTTLTVSS VL: DIVMTQSPATLSVSPGERATISCRSSKSLLNSNGNTYLYWFLQKPGQSPQLLIYRMSNLASGVPDRFSGSGSGTDFTLTISRVEAEDVGVYYCMQHLEYPFTFGAGTKLEIK	~3 nM
